Molecular target: rat recombinant IDE (Rattus norvegicus, UniProt P35559)
Construct: purchased Calbiochem (InnoZyme Insulysin/IDE Immunocapture Activity Assay Kit) CBA079
Sequence (P35559 whole entry): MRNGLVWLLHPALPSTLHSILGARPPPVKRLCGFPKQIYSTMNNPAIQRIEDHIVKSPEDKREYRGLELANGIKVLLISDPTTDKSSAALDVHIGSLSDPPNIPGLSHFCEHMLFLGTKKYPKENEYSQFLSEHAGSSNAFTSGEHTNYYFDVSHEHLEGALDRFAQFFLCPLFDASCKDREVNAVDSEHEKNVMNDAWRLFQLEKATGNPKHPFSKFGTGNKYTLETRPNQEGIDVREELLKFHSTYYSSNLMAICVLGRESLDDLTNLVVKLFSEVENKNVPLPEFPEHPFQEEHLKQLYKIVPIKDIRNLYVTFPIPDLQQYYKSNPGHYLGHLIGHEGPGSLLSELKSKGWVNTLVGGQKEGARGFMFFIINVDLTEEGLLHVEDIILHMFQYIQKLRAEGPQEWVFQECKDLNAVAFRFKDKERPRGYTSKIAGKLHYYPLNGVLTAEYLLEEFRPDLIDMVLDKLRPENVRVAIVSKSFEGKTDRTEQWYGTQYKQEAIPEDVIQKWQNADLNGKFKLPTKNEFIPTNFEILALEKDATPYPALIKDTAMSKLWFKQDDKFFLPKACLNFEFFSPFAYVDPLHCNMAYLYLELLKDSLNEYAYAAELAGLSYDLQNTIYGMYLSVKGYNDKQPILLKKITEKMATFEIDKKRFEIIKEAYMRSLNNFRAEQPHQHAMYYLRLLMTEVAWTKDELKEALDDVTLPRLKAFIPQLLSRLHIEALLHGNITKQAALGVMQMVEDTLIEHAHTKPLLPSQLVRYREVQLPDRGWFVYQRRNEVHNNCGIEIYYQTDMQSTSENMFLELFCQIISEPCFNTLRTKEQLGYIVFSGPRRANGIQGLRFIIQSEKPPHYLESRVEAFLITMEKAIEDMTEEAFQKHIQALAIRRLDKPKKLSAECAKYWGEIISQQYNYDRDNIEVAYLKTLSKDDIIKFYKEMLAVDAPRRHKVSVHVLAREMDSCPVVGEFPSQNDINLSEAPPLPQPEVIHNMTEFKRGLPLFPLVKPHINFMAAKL
Assay: Fluorometric IDE activity assay (InnoZyme Insulysin/IDE Immunocapture Activity Assay Kit, FRET substrate)
Type: biochemical
Conditions: rat recombinant IDE 1.14 nM, 16 hours at 37° C., FRET substrate Mca-[…]-EDDnp; 3 repeated experiments; read-out: IC50
Peptide text beside a SMILES is read from it.
reported_metric: pIC50
Please treat pIC50 as minus the base-10 logarithm of the molar concentration.

Challenge: Consider the compound shown here: N[C@@H](CC(=O)O)C(=O)N[C@@H](CC(=O)O)C(=O)O [ADT-31, DD] (H-Asp-Asp-OH) What is its recorded pIC50?
Response given: 6.13

---

Provide the reported pIC50 of each item.
Target: rat recombinant IDE (Rattus norvegicus, UniProt P35559)
Construct: purchased Calbiochem (InnoZyme Insulysin/IDE Immunocapture Activity Assay Kit) CBA079
Test: Fluorometric IDE activity assay (InnoZyme Insulysin/IDE Immunocapture Activity Assay Kit, FRET substrate)
Assay type: biochemical
Settings: IC50, rat recombinant IDE 1.14 nM, 16 hours at 37° C., FRET substrate Mca-GGFLRKHGQ-EDDnp; 3 repeated experiments
Method: For example, one method that may be used (as described in detail in Example 2, of the Examples section which follows) comprises the use of Insulysin/IDE Immunocapture Activity Assay Kit (available e.g. from InnoZyme™, Calbiochem). […] The enzymatic activity is measured in comparison to wells without the peptide using for example a FRET substrate, Mca-[…]-EDDnp (SEQ ID NO: 11). […] The increase in fluorescence is measured using an excitation wavelength of 320 nm and an emission wavelength of 405 nm. […]
Ends that are not written are not given here.
Please treat pIC50 as minus the base-10 logarithm of the molar concentration.

Challenge: Consider the sequence shown here: ITNPGSGGSSEALYDDLVCG [ADT41] What is its recorded pIC50?
Response given: 6.48

Challenge: Also need KCNTGSGGSSVLRYDDFHTD [ADT61] , thanks.
Response given: 6.08

Challenge: Also need VLRYDDFHTD [ADT1] , thanks.
Response given: 6.84

Challenge: Also need FVNQGSGGSSVLRYDDFHTD [ADT51] , thanks.
Response given: 6.31

Challenge: Also need HSQGGSGGSSVLRYDDFHTD [ADT71] , thanks.
Response given: 5.86

Challenge: Also need KLVFDDFAED [ADT5, KLVFDDFAED] , thanks.
Response given: 6.26

Challenge: Also need EALYDDLVCG [ADT2] , thanks.
Response given: 6.64

Challenge: Also need ITNPVRASVLRYDDFHTD [VZV, reference compound] , thanks.
Response given: 6.35

Challenge: Also need ITNPGSGGSSKLVFDDFAED [ADT44] , thanks.
Response given: 6.26

Challenge: Also need LANFDDLVHSSNN [ADT3] , thanks.
Response given: 6.10

Challenge: Also need KCNTGSGGSSLANFDDLVHSSNN [ADT23] , thanks.
Response given: 6.21

Challenge: Also need EALYLVCG [INS, reference compound] , thanks.
Response given: 6.33

Challenge: Also need ITNPGSGGSSLANFDDLVHSSNN [ADT42] , thanks.
Response given: 6.70

Challenge: Also need HSQGGSGGSSEALYDDLVCG [ADT72] , thanks.
Response given: 6.93

Challenge: Also need DAEFGSGGSSEALYDDLVCG [ADT82] , thanks.
Response given: 6.36

Challenge: Also need DAEFGSGGSSKLVFDDFAED [ADT25] , thanks.
Response given: 6.22

Challenge: Also need HSQGGSGGSSFVQWDDLMN [ADT24] , thanks.
Response given: 6.76

The reported measurements were obtained from patent US8691760B2.
